biological target: HLA-B08.01 (human); assay: competition with radiolabeled reference peptide, purified MHC I
Observation type: pIC50
Value format note: pIC50 is -log10 of concentration (mol/L); just state the number.

Dear colleague, I am looking for the recorded pIC50 of the following binder: LKKLRSPL
9.22
